B1: Membrane-associated guanylate kinase, WW and PDZ domain-containing protein 1, residues 352 to 401; numbered along this chain, Q96QZ7 (parent)
chain: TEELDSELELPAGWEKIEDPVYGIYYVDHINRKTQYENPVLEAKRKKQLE

- Variants of: B1
- testDetails: abundance fitness (aPCA) (normalised: wild type 0, dead -1); higher = more abundant; growth selection in yeast, the domain comes from the species named
- conditionSet: Homo sapiens
Please map values of abundance fitness to classes as shown: bottom range (below -0.4), center range (-0.4 to below -0.3), top range (-0.3 or more)

[[record]]
changes = "E42F"
qualitativelabel = "bottom range"

[[record]]
changes = "E2D"
qualitativelabel = "center range"

[[record]]
changes = "L10K"
qualitativelabel = "bottom range"

[[record]]
changes = "N31M"
qualitativelabel = "bottom range"

[[record]]
changes = "V21P"
qualitativelabel = "center range"


Hello team, could you let me know which band the following variant falls into: V21W top range

Category of T34R , please. top range

# bin lookup: classify G13D by its abundance fitness bottom range

Determine which band this variant sits in: A43K top range

Tag the class for Y36M top range

Cited source for all entries: the Human Domainome abundance scans (Beltran et al. 2025)
